Test system: Candida lipolytica PCM 2680-FY
Type: cell-based
Details: 24 h
Protocol: The Staphylococcus aureus ATCC 25923, Staphylococcus epidermidis ATCC 14990, Escherichia coli ATCC 25922, Pseudomonas aeruginosa ATCC 9027, Candida albicans ATCC 10231, Candida glabrata ATCC 15126, Candida lipolytica PCM 2680-FY, and Candida tropicalis PCM 2709-FY strains were acquired from the Polish Collection of Microorganisms (PCM, Polish Academy of Sciences, Wrocław, Poland) and from the American Type Culture Collection (ATCC). […] MBECs were determined on 96-well polystyrene flat-bottom plates. […]
Where a SMILES comes first, the peptide text is derived from it. Bridges are numbered along the chain shown (N, C = ends). The star is where a group is joined. Palmitoyl = CCCCCCCCCCCCCCCC(=O)*
Reported MBEC C. lipolytica values follow for various compounds
Express the result in µg/mL but write the number alone.

# example entries with known answers
>>> number("CCCCCCCCCCCCCCCC(=O)N[C@H]1CSSC[C@@H](C(N)=O)NC(=O)[C@H](CCCNC(=N)N)NC(=O)[C@H](CCCCN)NC(=O)[C@H](CCCCN)NC(=O)[C@H](CCCCN)NC1=O [C6, C16-CKKKRC-NH2] (Palmitoyl-CKKKRC-NH2; disulfide 1-6)")
16
>>> number("CCCCCCCCCCCCCCCC(=O)N[C@@H](CCCNC(=N)N)C(=O)N[C@@H](CCCNC(=N)N)C(=O)N[C@@H](CCCCN)C(=O)N[C@@H](CCCCN)C(N)=O [L7, C16-RRKK-NH2] (Palmitoyl-RRKK-NH2)")
16
>>> number("CCCCCCCCCCCCCCCC(=O)N[C@@H](CCCCN)C(=O)N[C@@H](CCCNC(=N)N)C(=O)N[C@@H](CCCCN)C(=O)N[C@@H](CCCCN)C(N)=O [L4, C16-KRKK-NH2] (Palmitoyl-KRKK-NH2)")
32

Let us move to another entry and its MBEC C. lipolytica.
Exercise: Any idea what its MBEC C. lipolytica is? The compound is CCCCCCCCCCCCCCCC(=O)N[C@H]1CSSC[C@@H](C(N)=O)NC(=O)[C@H](CCCCN)NC(=O)[C@H](CCCNC(=N)N)NC(=O)[C@H](CCCCN)NC(=O)[C@H](CCCCN)NC1=O [C5, C16-CKKRKC-NH2] (Palmitoyl-CKKRKC-NH2; disulfide 1-6)
Key: 16
